- method-notes: Ocular in vivo biodistribution, bilastine tissue concentration by LC-MS/MS
- Set-up: species or system Dutch Belted rabbits
- setup-conditions: Dutch Belted, conjunctiva, topical; 24 hours post-administration; rabbit, 30 μL of 0.6% w/v formulation in each eye, single occasion; read-out: bilastine concentration in conjunctiva (mean value)
recorded-metric: concentration at 24 h (ng/g)
Field: numeric (ng/g). Do not append units.

Q: Consider the molecule CCOCCn1c(C2CCN(CCc3ccc(C(C)(C)C(=O)O)cc3)CC2)nc2ccccc21 and give its measured concentration at 24 h.
Result: 388

====

- method-notes: Ocular in vivo biodistribution, bilastine tissue concentration by LC-MS/MS
- Parameters: species or system Dutch Belted rabbits
- setup-conditions: Dutch Belted, retina/choroid, topical; 24 hours post-administration; rabbit, 30 μL of 0.6% w/v formulation in each eye, single occasion; read-out: bilastine concentration in retina/choroid
recorded-metric: concentration at 24 h

Q: Record request: concentration at 24 h value, item CCOCCn1c(C2CCN(CCc3ccc(C(C)(C)C(=O)O)cc3)CC2)nc2ccccc21
Result: 1.91 ng/g

====

- method-notes: Ocular in vivo biodistribution, bilastine tissue concentration by LC-MS/MS
- Design: species or system Dutch Belted rabbits
- setup-conditions: Dutch Belted, crystalline lens, topical; 24 hours post-administration; rabbit, 30 μL of 0.6% w/v formulation in each eye, single occasion; read-out: bilastine concentration in crystalline lens
recorded-metric: concentration at 24 h (ng/g)
Your answer is read as ng/g, so omit the unit and give the number.

Q: Tell me the measured concentration at 24 h of CCOCCn1c(C2CCN(CCc3ccc(C(C)(C)C(=O)O)cc3)CC2)nc2ccccc21 , please.
Result: 0.12

====

- method-notes: Ocular in vivo biodistribution, bilastine tissue concentration by LC-MS/MS
- Set-up: species or system Dutch Belted rabbits
- setup-conditions: Dutch Belted, cornea, topical; 24 hours post-administration; rabbit, 30 μL of 0.6% w/v formulation in each eye, single occasion; read-out: bilastine concentration in cornea (mean value)
recorded-metric: concentration at 24 h (ng/g)
State the answer as a number, implicitly in ng/g.

Q: // concentration at 24 h lookup, key: CCOCCn1c(C2CCN(CCc3ccc(C(C)(C)C(=O)O)cc3)CC2)nc2ccccc21
Result: 28.7
